The measurements presented in this section are drawn from ChEMBL document CHEMBL1153772.

organism: Homo sapiens; assay: Unbound fraction in human plasma at 1 uM

{"columns": ["smi", "fraction unbound at 1 µM"],
 "data": [
  ["CC(=O)N(C)CCc1cc(Br)c(OCCCNc2ncn(C)c3ncnc2-3)c(Br)c1", 0.044]
]}

----------
experiment: Stability in mouse plasma assessed as compound remaining at 40 uM after 3 hrs in presence of PBS and inorganic phosphate buffer; type: ADME, cell-free; conditions: read-out: Activity
measured-parameter: remaining at 3 h, 40 µM

{"columns": ["smi", "measured"],
 "data": [
  ["CC(=O)N(C)CCc1cc(Br)c(OCCCNc2ncn(C)c3ncnc2-3)c(Br)c1", "79.6%"]
]}

----------
assay: Unbound fraction in mouse plasma at 1 uM; format: ADME, cell-free

{"columns": ["smi", "fraction unbound at 1 µM"],
 "data": [
  ["CC(=O)N(C)CCc1cc(Br)c(OCCCNc2ncn(C)c3ncnc2-3)c(Br)c1", 0.15]
]}

----------
system: Vero; test: Cytotoxicity against african green monkey Vero cells; type: cell-based; details: Chlorocebus sabaeus

{"columns": ["compound", "IC50"],
 "data": [
  ["CC(=O)N(C)CCc1cc(Br)c(OCCCNc2ncn(C)c3ncnc2-3)c(Br)c1 [APHROCALLISTIN]", "76.1 µM"]
]}

----------
assay: Metabolic satbility in mouse liver microsomes assessed as compound remaining at 1 uM after 60 min in the presence of NADPH; format: ADME, Microsome; settings: read-out: Stability

{"columns": ["molecule", "remaining at 1 h, 1 µM, %"],
 "data": [
  ["CC(=O)N(C)CCc1cc(Br)c(OCCCNc2ncn(C)c3ncnc2-3)c(Br)c1 [APHROCALLISTIN]", 1.44]
]}

----------
assay: Permeability at 50 uM at pH 5 by PAMPA; type: ADME; details: read-out: permeability

{"columns": ["smi", "display-unit", "Papp at 50 µM"],
 "data": [
  ["CC(=O)N(C)CCc1cc(Br)c(OCCCNc2ncn(C)c3ncnc2-3)c(Br)c1", "×10⁻⁶ cm/s", 33]
]}

----------
assay: Stability in mouse plasma in presence of PBS at 40 uM after 3 hrs; format: ADME, cell-free; conditions: read-out: Stability
measured-parameter: remaining at 3 h, 40 µM (%)

{"columns": ["molecule", "measured-parameter", "measured"],
 "data": [
  ["CC(=O)N(C)CCc1cc(Br)c(OCCCNc2ncn(C)c3ncnc2-3)c(Br)c1 [APHROCALLISTIN]", "remaining at 3 h, 40 µM", 96.3]
]}

----------
test: Permeability at 50 uM at pH 7.4 by PAMPA; type: ADME; conditions: read-out: permeability

{"columns": ["smi", "Papp at 50 µM (×10⁻⁶ cm/s)"],
 "data": [
  ["CC(=O)N(C)CCc1cc(Br)c(OCCCNc2ncn(C)c3ncnc2-3)c(Br)c1", 321]
]}

----------
test: Solubility at pH 5; format: physicochemical; conditions: buffer
measured-parameter: solubility

{"columns": ["smi", "measured-parameter", "measured"],
 "data": [
  ["CC(=O)N(C)CCc1cc(Br)c(OCCCNc2ncn(C)c3ncnc2-3)c(Br)c1", "solubility", "> 0.267 mg/mL"]
]}

----------
species on record: Homo sapiens; test: Stability in human plasma assessed as compound remaining at 40 uM after 3 hrs in presence of PBS and inorganic phosphate buffer

{"columns": ["smi", "display-unit", "remaining at 3 h, 40 µM"],
 "data": [
  ["CC(=O)N(C)CCc1cc(Br)c(OCCCNc2ncn(C)c3ncnc2-3)c(Br)c1", "%", 76.6]
]}

----------
experiment: Metabolic stability in mouse liver microsomes assessed as compound metabolized at 1 uM in the presence of NADPH; format: ADME, Microsome; conditions: read-out: Activity
measured-parameter: metabolised at 1 µM

{"columns": ["smi", "measured-parameter", "measured"],
 "data": [
  ["CC(=O)N(C)CCc1cc(Br)c(OCCCNc2ncn(C)c3ncnc2-3)c(Br)c1", "metabolised at 1 µM", "98.6%"]
]}
